System: Plasmodium falciparum
test-details: Antiplasmodial activity against chloroquine-sensitive Plasmodium falciparum D10 infected in human type A-positive RBC assessed as inhibition of parasite LDH activity after 72 hrs by spectrophotometrically
Assay type: functional, organism-based
condition-info: D10, 72 h
Below, each of the molecules is paired with its reported log10(IC50) value.
readout-type: log10(IC50) (log10 of the value in nM)

{"molecule": "CC1(CC2CCCC2)C[C@]2(C)CCO[C@@H]2OO1 (mixture of isomers)", "observed-value": 2.74}
{"molecule": "CC(C)Cc1ccccc1[C@H]1C[C@]2(C)CCO[C@@H]2OO1 (racemic)", "observed-value": 4.11}
{"molecule": "CC1(CC2C3CC4CC(C3)CC2C4)C[C@]2(C)CCO[C@@H]2OO1 (mixture of isomers)", "observed-value": 2.36}
{"molecule": "CCc1ccccc1[C@H]1C[C@]2(C)CCO[C@@H]2OO1 (racemic)", "observed-value": 4.18}
{"molecule": "CC1(CC2CCCCC2)C[C@]2(C)CCO[C@@H]2OO1 (mixture of isomers)", "observed-value": 2.69}
{"molecule": "CCCCCC1(C)C[C@]2(C)CCO[C@@H]2OO1 (mixture of isomers)", "observed-value": 3.46}

---

Below, each of the compounds is paired with its reported pIC50 value.
System: Plasmodium falciparum
test-details: Antiplasmodial activity against chloroquine-sensitive Plasmodium falciparum D10 infected in human type A-positive RBC assessed as inhibition of parasite LDH activity after 72 hrs by spectrophotometrically
Format: functional, organism-based
condition-info: D10, 72 h
pIC50: −log10 of the molar value.

{"compound": "CCC(CC)CC1(C)C[C@@H]2CCO[C@@H]2OO1 (mixture of isomers)", "target-or-test-system": "Plasmodium falciparum", "pIC50": "< 5.00"}
{"compound": "CCC(CC)CC1(C)C[C@]2(C)CCO[C@@H]2OO1 (mixture of isomers)", "target-or-test-system": "Plasmodium falciparum", "pIC50": 6.12}
{"compound": "CC1(C)C[C@]2(C)CCO[C@@H]2OO1 (racemic)", "target-or-test-system": "Plasmodium falciparum", "pIC50": "< 5.00"}
{"compound": "CCc1ccccc1[C@@H]1C[C@]2(C)CCO[C@@H]2OO1 (racemic)", "target-or-test-system": "Plasmodium falciparum", "pIC50": "< 4.70"}
{"compound": "CC1(C)C[C@@H]2CCO[C@@H]2OO1 (relative stereo)", "target-or-test-system": "Plasmodium falciparum", "pIC50": "< 5.00"}
{"compound": "CCCCC1(C)C[C@]2(C)CCO[C@@H]2OO1 (mixture of isomers)", "target-or-test-system": "Plasmodium falciparum", "pIC50": 5.54}
{"compound": "CCCCC1(C)C[C@@H]2CCO[C@@H]2OO1 (mixture of isomers)", "target-or-test-system": "Plasmodium falciparum", "pIC50": "< 5.00"}
{"compound": "CCC(CC)C[C@@]1(C)C[C@@H](CC)[C@@H]([C@H](O)CO)OO1", "target-or-test-system": "Plasmodium falciparum", "pIC50": 5.92}
{"compound": "CCC(CC)C[C@]1(C)C[C@@H](CC)[C@@H](CC(=O)OC)OO1", "target-or-test-system": "Plasmodium falciparum", "pIC50": 5.62}
{"compound": "CCC(CC)C[C@]1(C)C[C@@H](CC)[C@@H]([C@H](O)CO)OO1", "target-or-test-system": "Plasmodium falciparum", "pIC50": 5.62}
{"compound": "CC[C@@H]1CC(C)(C)OO[C@@H]1[C@H](O)COC(C)=O", "target-or-test-system": "Plasmodium falciparum", "pIC50": "< 5.00"}
{"compound": "CC[C@@H]1CC(C)(C)OO[C@@H]1[C@H](O)CO", "target-or-test-system": "Plasmodium falciparum", "pIC50": "< 5.00"}
{"compound": "CC[C@@]12CCO[C@@H]1OOC(C)(C)C2 (racemic)", "target-or-test-system": "Plasmodium falciparum", "pIC50": "< 5.00"}
{"compound": "C[C@@]12CCO[C@@H]1OO[C@H](c1ccccc1)C2 (racemic)", "target-or-test-system": "Plasmodium falciparum", "pIC50": "< 4.70"}
{"compound": "CCC(CC)C[C@@]1(C)C[C@@H](CC)[C@@H](CC(=O)OC)OO1", "target-or-test-system": "Plasmodium falciparum", "pIC50": 6.05}
{"compound": "Cc1ccccc1[C@H]1C[C@]2(C)CCO[C@@H]2OO1 (racemic)", "target-or-test-system": "Plasmodium falciparum", "pIC50": "< 4.70"}
{"compound": "CC(C)c1ccccc1[C@H]1C[C@]2(C)CCO[C@@H]2OO1 (racemic)", "target-or-test-system": "Plasmodium falciparum", "pIC50": 5.08}
{"compound": "CC(C)C[C@@]12CCO[C@@H]1OOC(C)(C)C2 (racemic)", "target-or-test-system": "Plasmodium falciparum", "pIC50": "< 5.00"}
